measured-target: Man(a1-3)[Man(a1-6)]Man(a1-6)[Man(a1-3)]Man
assay-remarks: glycan array binding signal (z-score within array); higher = stronger binding
details: glycan notation: IUPAC condensed, linker removed
About 410 targets per protein were measured; listed, in parts, are those with the strongest signals and a random draw of the rest.
Items are presented alongside their recorded glycan array binding signal (z-score).
The response must contain the number and no unit.

// below: answered binders
binder="Lb MiSSP8 (Laccaria bicolor) (protein) MYFHTLFACATLMLITTAHASPTVINSLDSRKADLNGDVEARHAADWRRDSDWRRDSDWRRDSDWRRDSD" experimental_readout="glycan array binding signal (z-score)" meas_value=2.36
binder="Cohesin-hDECTIN-1 (Homo sapiens) (protein) LDITSHHHHHHDDLDAVRIKVDTVNAKPGDTVRIPVRFSGIPSKGIANCDFVYSYDPNVLEIIEIEPGDIIVDPNPDKSFDTAVYPDRKIIVFLFAEDSGTGAYAITKDGVFATIVAKVKEGAPNGLSVIKFVEVGGFANNDLVEQKTQFFDGGVNVGDTTEPATPTTPVTTPTTTDDLDAASSSPCPPNWIIYEKSCYLFSMSLNSWDGSKRQCWQLGSNLLKIDSSNELGFIVKQVSSQPDNSFWIGLSRPQTEVPWLWEDGSTFSSNLFQIRTTATQENPSPNCVWIHVSVIYDQLCSVPSYSICEKKFM" experimental_readout="glycan array binding signal (z-score)" meas_value=-0.272

Please turn your attention to the following entry.
[Q] Entry under review: HHA (Hippeastrum hybrid) (protein) MQQDCNLVLYDVDKPIWASNTGGLARDCHLNMQSDGNLVVYAPRNQVIWASNTQGENGNYVCILQKDRNVVIYGTARWATGTNIHGAGIVGVPGSAPQNTTAEMIKLVRKYLITK . Reported glycan array binding signal (z-score)?
[A] 5.35
